# Subject of test: 5-hydroxytryptamine receptor 2A (Homo sapiens)
# Study conditions: Compound concentration 10 µM
# Description: PDSP Primary Binding target: HTR2A - Compounds are tested at 10 uM concentration, plate are incubated at room temperature in the dark for 90 minutes. Reaction are stopped by vacuum filtration onto 0.3% polyethyleneimine soaked filter mats using Filtermate harvester. Scintilation cocktail is then melted onto microwave-dried filters on a hot plate and the radio activity is counted in Microbia counter.
Experimental endpoint: inhibition (%)

compound=Cc1nc(C(=O)N2CCC[C@H]2Cc2nnc(-c3ccccc3)o2)c(-c2ccccc2F)s1 experimental_endpoint=inhibition quantitative_result=8.26
compound=Cc1cc(C)cc(C(=O)N(C)[C@H](Cc2ccc(-c3ccccc3)cc2)C(=O)N[C@@H](Cc2c[nH]c3ccccc23)C(=O)O)c1 experimental_endpoint=inhibition quantitative_result=31.2
compound=N#Cc1cccc(C(=O)Nc2cc(-c3ccccc3)nn2-c2ccccc2)c1 experimental_endpoint=inhibition quantitative_result=6.53
compound=CCCCCNC(=N)N/N=C/c1c[nH]c2ccc(OC)cc12 experimental_endpoint=inhibition quantitative_result=93.7
compound=O=C(O)C1CN(Cc2ccc(OCc3ccc(Cl)c(Cl)c3)cc2)C1 experimental_endpoint=inhibition quantitative_result=55.1
compound=NCCc1c[nH]c2ccc(C(N)=O)cc12 experimental_endpoint=inhibition quantitative_result=-8.47
compound=N#Cc1c[nH]c2c(C(=O)N3CCN(CCc4ccc(F)cc4)CC3)cccc12 experimental_endpoint=inhibition quantitative_result=100
compound=Cc1cccc([C@H](C)c2c[nH]cn2)c1C experimental_endpoint=inhibition quantitative_result=26.8
compound=O=C(Cc1ccc(Cl)c(Cl)c1)N1CCCC[C@H]1CN1CCCC1 experimental_endpoint=inhibition quantitative_result=6.03
compound=NC[C@H](O)c1ccc(O)c(O)c1 experimental_endpoint=inhibition quantitative_result=10.9
compound=Clc1ccc(CCCOCCCN2CCCCC2)cc1 experimental_endpoint=inhibition quantitative_result=28.5
compound=C[C@@H](NCCCc1cccc(C(F)(F)F)c1)c1cccc2ccccc12 experimental_endpoint=inhibition quantitative_result=80.6
compound=CC(C)NC(=O)c1ccc(C#Cc2ccncc2)cn1 experimental_endpoint=inhibition quantitative_result=4.54
compound=CCCNS(=O)(=O)Nc1ncnc(OCCOc2ncc(Br)cn2)c1-c1ccc(Br)cc1 experimental_endpoint=inhibition quantitative_result=42.8
compound=COc1ccc(NS(=O)(=O)c2sc3ccc(Cl)cc3c2C)cc1N1CCNCC1 experimental_endpoint=inhibition quantitative_result=37.4
compound=c1nc(CC2CCNCC2)c[nH]1 experimental_endpoint=inhibition quantitative_result=20.8
compound=CCc1cc2c(cc1CC)CC(NC[C@H](O)c1ccc(O)c3[nH]c(=O)ccc13)C2 experimental_endpoint=inhibition quantitative_result=61.1
compound="CN1CCCC(n2nc(Cc3ccc(Cl)cc3)c3ccccc3c2=O)CC1 (stereo not given)" experimental_endpoint=inhibition quantitative_result=96.7
compound=O=C(O)COc1cccc(CN(Cc2ccc(-n3cccn3)cc2)S(=O)(=O)c2cccnc2)c1 experimental_endpoint=inhibition quantitative_result=15.6
compound=CCC(=O)NCC[C@@H]1CCc2ccc3c(c21)CCO3 experimental_endpoint=inhibition quantitative_result=6.79
compound="COc1ccc(C2(O)OC(=O)C(c3ccc4c(c3)OCO4)=C2Cc2cc(OC)c(OC)c(OC)c2)cc1 (stereo not given)" experimental_endpoint=inhibition quantitative_result=12.4
compound=Cc1csc(NC(=O)c2cc(F)cc(Oc3cncnc3)c2)n1 experimental_endpoint=inhibition quantitative_result=1.92
compound=CS(=O)(=O)NC[C@H]1CC[C@H](Nc2nc3c(s2)CCSc2ccccc2-3)CC1 experimental_endpoint=inhibition quantitative_result=23.7
compound=CCc1cc2c(c(CC)n1)CCC(=O)N2Cc1ccc(-c2ccccc2-c2nnn[nH]2)cc1 experimental_endpoint=inhibition quantitative_result=29.2
compound=Cc1nc(C#Cc2ccnc(Cl)c2)c(C)n1-c1ccc(OC(F)(F)F)cc1 experimental_endpoint=inhibition quantitative_result=16.1
compound=CCc1cc(C(C)=O)c(O)cc1OCCCCCC(C)(C)c1nn[nH]n1 experimental_endpoint=inhibition quantitative_result=12.7
compound="CC(C)NCC(O)c1ccc(N)c(C#N)c1 (stereo not given)" experimental_endpoint=inhibition quantitative_result=9.46
compound=Cc1c(C(=O)NC2CCCCC2)sc2nc3ccc(N)cc3n12 experimental_endpoint=inhibition quantitative_result=10.5
compound=O=C1O[C@]2(CC[C@H](C(=O)Nc3ccn(-c4ccccc4F)n3)CC2)c2cnccc21 experimental_endpoint=inhibition quantitative_result=22.2
compound=COc1ccc(Br)cc1S(=O)(=O)NC(=O)/C=C/c1ccccc1Cc1ccc2ccccc2c1 experimental_endpoint=inhibition quantitative_result=8.02
